FYI, the data here is from patent US20250302815A1.

DC50 by entry:
target: PTPN2 (B16F10.4 cells) (Mus musculus, UniProt Q06180); construct: HiBiT; host or cells: B16F10.4; assay: HiBiT Degradation B16F10.4 PTPN2; assay type: cell-based; settings: 24.0 hours

Below, 3 molecules whose answers are already recorded.
Item Cn1c(=O)n(C2CCC(=O)NC2=O)c2ccc(C3CCN(C(=O)Nc4cccc(CS(=O)(=O)N5CCC(Nc6cccc(-c7sc(C(=O)O)c(OCC(=O)O)c7Cl)c6)CC5)c4F)CC3)cc21 (centres unmarked) with PTPN2 (B16F10.4 cells) (Mus musculus, UniProt Q06180) - DC50?
< 50 nM

Item O=C(O)COc1c(C(=O)O)sc(-c2cccc(NC3CCN(S(=O)(=O)C(c4ccccc4)c4cccc(NC(=O)CNc5ccc6c(c5)C(=O)N(C5CCC(=O)NC5=O)C6=O)c4)CC3)c2)c1Cl (centres unmarked) with PTPN2 (B16F10.4 cells) (Mus musculus, UniProt Q06180) - DC50?
≥ 1000 nM

Item Cc1nn(C2CCC(=O)NC2=O)c2ccc(C3CCN(C(=O)Nc4cccc(CS(=O)(=O)N5CC[C@H](Nc6cccc(-c7sc(C(=O)O)c(OCC(=O)O)c7Cl)c6)CC5(C)C)c4)CC3)cc12 (some centres unmarked) with PTPN2 (B16F10.4 cells) (Mus musculus, UniProt Q06180) - DC50?
200 to 1000 nM

Further cases:
Item CN(C(=O)C1CCN(C(=O)CNc2cccc3c2CN(C2CCC(=O)NC2=O)C3=O)CC1)c1cccc(CS(=O)(=O)N2CC[C@@H](Nc3cccc(-c4sc(C(=O)O)c(OCC(=O)O)c4Cl)c3)CC2(C)C)c1 (some centres unmarked) with PTPN2 (B16F10.4 cells) (Mus musculus, UniProt Q06180) - DC50?
≥ 1000 nM

Item CC1(C)C[C@@H](Nc2cccc(-c3sc(C(=O)O)c(OCC(=O)O)c3Cl)c2)CCN1S(=O)(=O)Cc1cccc(NC(=O)N2CCC(Cc3ccc4c5c(cccc35)C(=O)N4C3CCC(=O)NC3=O)CC2)c1 (some centres unmarked) with PTPN2 (B16F10.4 cells) (Mus musculus, UniProt Q06180) - DC50?
< 50 nM

====

DC50 by entry:
Molecular target: PTPN2 (B16F10.4 cells) (Mus musculus)
Construct: HiBiT; host or cells: B16F10.4
Sequence (Q06180 1-406): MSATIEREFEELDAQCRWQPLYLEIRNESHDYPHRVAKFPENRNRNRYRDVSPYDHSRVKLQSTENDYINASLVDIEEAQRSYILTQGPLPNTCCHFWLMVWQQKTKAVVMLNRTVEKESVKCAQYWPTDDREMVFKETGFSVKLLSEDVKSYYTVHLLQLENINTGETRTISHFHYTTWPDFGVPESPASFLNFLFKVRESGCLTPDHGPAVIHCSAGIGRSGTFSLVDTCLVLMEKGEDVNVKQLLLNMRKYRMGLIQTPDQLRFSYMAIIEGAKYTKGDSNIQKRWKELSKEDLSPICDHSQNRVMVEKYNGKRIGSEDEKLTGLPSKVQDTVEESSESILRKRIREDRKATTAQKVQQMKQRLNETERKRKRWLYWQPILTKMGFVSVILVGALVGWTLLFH
Experiment: HiBiT Degradation B16F10.4 PTPN2
Assay type: cell-based
Details: 24.0 hours

So what's the measured DC50 for this one? CC1(C)C[C@@H](Nc2cccc(-c3sc(C(=O)O)c(OCC(=O)O)c3Cl)c2)CCN1S(=O)(=O)Cc1cccc(NC(=O)N2CCC(c3ccc4c(c3)n(C(C)(C)C)c(=O)n4C3CCC(=O)NC3=O)CC2)c1 (stereo partly drawn)
50 to 200 nM

So what's the measured DC50 for this one? Cn1c(=O)n(C2CCC(=O)NC2=O)c2ccc(N3CCC(CCNCCNc4cccc(CS(=O)(=O)N5CC[C@H](Nc6cccc(-c7sc(C(=O)O)c(OCC(=O)O)c7Cl)c6)CC5(C)C)c4)CC3)cc21 (stereo partly drawn)
50 to 200 nM

So what's the measured DC50 for this one? CC1(C)C[C@@H](Nc2cccc(-c3sc(C(=O)O)c(OCC(=O)O)c3Cl)c2)CCN1S(=O)(=O)Cc1ccc(F)c(NC(=O)N2CCC(c3ccc4c5c(cccc35)C(=O)N4C3CCC(=O)NC3=O)CC2)c1 (stereo partly drawn)
< 50 nM

So what's the measured DC50 for this one? CC1Cc2cc(C3CCN(C(=O)Nc4cccc(CS(=O)(=O)N5CC[C@H](Nc6cccc(-c7sc(C(=O)O)c(OCC(=O)O)c7Cl)c6)CC5(C)C)c4)CC3)ccc2N1C1CCC(=O)NC1=O (stereo partly drawn)
200 to 1000 nM

So what's the measured DC50 for this one? O=C(O)COc1c(C(=O)O)sc(-c2cccc(NC3CCN(S(=O)(=O)Cc4ccc(F)c(NC(=O)C5CN(C(=O)COc6cccc7c6CN(C6CCC(=O)NC6=O)C7=O)C5)c4)CC3)c2)c1Cl (stereo not drawn)
200 to 1000 nM

So what's the measured DC50 for this one? CC1(C)C[C@@H](Nc2cccc(-c3sc(C(=O)O)c(OCC(=O)O)c3Cl)c2)CCN1S(=O)(=O)Cc1cccc(N2CCN(C3CCN(c4ccc5c6c(cccc46)C(=O)N5C4CCC(=O)NC4=O)CC3)C2=O)c1 (stereo partly drawn)
< 50 nM

So what's the measured DC50 for this one? O=C(O)COc1c(C(=O)O)sc(-c2cccc(NC3CCN(S(=O)(=O)Cc4cccc(NC(=O)CCOCCNC(=O)CNc5ccc6c(c5)C(=O)N(C5CCC(=O)NC5=O)C6=O)c4)CC3)c2)c1Cl (stereo not drawn)
≥ 1000 nM

So what's the measured DC50 for this one? CC1(C)C[C@@H](Nc2cccc(-c3sc(C(=O)O)c(OCC(=O)O)c3Cl)c2)CCN1S(=O)(=O)Cc1cccc(NC(=O)[C@H]2CC[C@H](c3ccc4c5c(cccc53)C(=O)N4C3CCC(=O)NC3=O)CC2)c1 (stereo partly drawn)
< 50 nM

So what's the measured DC50 for this one? Cn1c(=O)n(C2CCC(=O)NC2=O)c2ccc(C3CCN(C(=O)Nc4cc(CS(=O)(=O)N5CC[C@H](Nc6cccc(-c7sc(C(=O)O)c(OCC(=O)O)c7Cl)c6)CC5(C)C)ccc4F)CC3)cc21 (stereo partly drawn)
50 to 200 nM

So what's the measured DC50 for this one? Cn1c(=O)n(C2CCC(=O)NC2=O)c2ccc(C3CCN(C(=O)Nc4cccc(CS(=O)(=O)N5CC[C@H](Nc6cccc(-c7sc(C(=O)O)c(OCC(=O)O)c7Cl)c6)CC56CC6)c4)CC3)cc21 (stereo partly drawn)
50 to 200 nM

Further cases:
So what's the measured DC50 for this one? Cn1c(=O)n(C2CCC(=O)NC2=O)c2ccc(N3CCC(C(=O)Nc4cccc(CS(=O)(=O)N5CC[C@H](Nc6cccc(-c7sc(C(=O)O)c(OCC(=O)O)c7Cl)c6)CC5(C)C)c4)CC3)cc21 (stereo partly drawn)
50 to 200 nM

So what's the measured DC50 for this one? Cn1c(=O)n(C2CCC(=O)NC2=O)c2ccc([C@@H]3CCN(C(=O)Nc4cccc(CS(=O)(=O)N5CC[C@H](Nc6cccc(-c7sc(C(=O)O)c(OCC(=O)O)c7Cl)c6)CC5(C)C)c4)C[C@@H]3F)cc21 (stereo in doubt)
< 50 nM

So what's the measured DC50 for this one? Cn1c(=O)n([C@@H]2CCC(=O)NC2=O)c2ccc(C3CCN(C(=O)Nc4cccc(CS(=O)(=O)N5CC[C@H](Nc6cccc(-c7sc(C(=O)O)c(OCC(=O)O)c7Cl)c6)CC5(C)C)c4)CC3)cc21 (single isomer, unassigned)
< 50 nM

So what's the measured DC50 for this one? O=C(O)COc1c(C(=O)O)sc(-c2cccc(NC3CCN(S(=O)(=O)Cc4cccc(NC(=O)CNc5ccc6c(c5)C(=O)N(C5CCC(=O)NC5=O)C6=O)c4)CC3)c2)c1Cl (stereo not drawn)
200 to 1000 nM

So what's the measured DC50 for this one? CC1(C)CC(Nc2cccc(-c3sc(C(=O)O)c(OCC(=O)O)c3Cl)c2F)CCN1S(=O)(=O)Cc1ccc(F)c(NC(=O)C2CN(C(=O)CNc3cccc4c3CN(C3CCC(=O)NC3=O)C4=O)C2)c1 (stereo not drawn)
200 to 1000 nM

So what's the measured DC50 for this one? CC1(C)C[C@@H](Nc2cccc(-c3sc(C(=O)O)c(OCC(=O)O)c3Cl)c2F)CCN1S(=O)(=O)Cc1ccc(F)c(NC(=O)N2CCC(c3ccc4c5c(cccc35)C(=O)N4C3CCC(=O)NC3=O)CC2)c1 (single isomer, unassigned)
< 50 nM

So what's the measured DC50 for this one? Cc1cn(C2CCC(=O)NC2=O)c2ccc(C3CCN(C(=O)Nc4cccc(CS(=O)(=O)N5CC[C@H](Nc6cccc(-c7sc(C(=O)O)c(OCC(=O)O)c7Cl)c6)CC5(C)C)c4)CC3)cc12 (stereo partly drawn)
200 to 1000 nM

So what's the measured DC50 for this one? O=C(O)COc1c(C(=O)O)sc(-c2cccc(NC3CCN(S(=O)(=O)Cc4cccc(NC(=O)CN5CCC(c6ccc7c(c6)CN(C6CCC(=O)NC6=O)C7=O)CC5)c4)CC3)c2)c1Cl (stereo not drawn)
200 to 1000 nM
